From: the RNAGym collection of RNA variant scans (doi:10.1101/gr.219683.116)

B1: mRNA-splicing (parent)
chain: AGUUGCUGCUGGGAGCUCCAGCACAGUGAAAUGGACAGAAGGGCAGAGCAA

variants of: B1; experiment: exon inclusion enrichment index; higher = more inclusion; WT1 exon 5 minigene, HEK293
Known exon inclusion enrichment index of a selection of variants
Hey, just send me the number, nothing else.

Answered examples (10):
INSERT INTO assay_data (mutation_id, measured_parameter, test_value) VALUES
  ('G5C C6G U7C U10C A37U G38U', 'exon inclusion enrichment index', 1.52),
  ('G5A C6G U7G C9A A20G G21A', 'exon inclusion enrichment index', 0.00277),
  ('G5A C6U U7A G8U C9A G46C A47C', 'exon inclusion enrichment index', 0.144),
  ('U3G U4G G5A U7C G8A U10C', 'exon inclusion enrichment index', 1.93),
  ('G5A U7C G8A U10C G15C C16U', 'exon inclusion enrichment index', 2.28),
  ('C6A U7A C9A U10A C19A', 'exon inclusion enrichment index', 0.348),
  ('G5C C6A U7C G8A U10A G33U G34U', 'exon inclusion enrichment index', 0.00723),
  ('C6A U7A C9A U10A A40G', 'exon inclusion enrichment index', 0.737),
  ('U27A G28A', 'exon inclusion enrichment index', 0.181),
  ('C6A U7C C9A U10C G13C', 'exon inclusion enrichment index', 2.83);

The recorded exon inclusion enrichment index for entry C6A U7C C9A U10C C22G A23C equals 1.74

The variant listed as G5A U7C G8A U10C U27G shows exon inclusion enrichment index equal to 1.05

The recorded exon inclusion enrichment index for entry G5C C6A U7C U10C equals 3.16

The reported value for C6A U7C C9A U10C C19A in terms of exon inclusion enrichment index is 2.55

Noted for C6A U7A C9A U10A G43U C44G : its exon inclusion enrichment index reads 0.238

Consider G5A C6G U7G C9A G43A C44G . Its measured exon inclusion enrichment index is 0.0259

Summary for this variant, G5C C6G U7C G8U U10C : exon inclusion enrichment index is 2.76

Notebook: G5A C6U U7A G8U C9A G28U A29U , exon inclusion enrichment index read as 0.00744
